Target: PDK1 (Homo sapiens)
Sequence (O15530 1-556): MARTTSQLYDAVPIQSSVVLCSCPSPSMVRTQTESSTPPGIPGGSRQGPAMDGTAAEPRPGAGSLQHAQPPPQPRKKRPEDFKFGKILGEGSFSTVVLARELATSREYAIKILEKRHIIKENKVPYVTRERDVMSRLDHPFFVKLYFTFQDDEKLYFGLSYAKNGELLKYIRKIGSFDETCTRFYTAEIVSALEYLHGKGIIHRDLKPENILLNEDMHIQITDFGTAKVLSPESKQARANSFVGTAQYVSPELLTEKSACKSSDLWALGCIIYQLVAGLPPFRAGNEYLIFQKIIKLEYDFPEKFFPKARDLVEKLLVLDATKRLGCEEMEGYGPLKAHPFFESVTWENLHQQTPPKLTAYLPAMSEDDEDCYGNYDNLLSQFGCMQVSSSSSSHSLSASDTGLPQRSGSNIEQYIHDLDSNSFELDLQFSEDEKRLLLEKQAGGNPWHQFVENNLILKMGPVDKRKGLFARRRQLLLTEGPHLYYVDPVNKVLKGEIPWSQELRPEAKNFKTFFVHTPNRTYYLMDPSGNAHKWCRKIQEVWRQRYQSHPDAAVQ

- COMPOUND: "Cc1[nH]nc(-c2nc3ccc(C(F)(F)F)cc3[nH]2)c1C(=O)NCC1CCCNC1 (centres unmarked)"
  IC50, nM: 86
- COMPOUND: "Cc1[nH]nc(-c2nc3cc4nc[nH]c4cc3[nH]2)c1C(=O)NC1CCNCC1"
  IC50, nM: 120
- COMPOUND: "Cc1[nH]nc(-c2nc3cc(Cl)c(Cl)cc3[nH]2)c1C(=O)NC1CCNCC1"
  IC50, nM: 123
- COMPOUND: "Cc1cc2nc(-c3n[nH]c(C)c3C(=O)NC3CCCNC3)[nH]c2cc1C (centres unmarked)"
  IC50, nM: 219
- COMPOUND: "Cc1[nH]nc(-c2nc3ccccc3[nH]2)c1C(=O)NCC1CCNCC1"
  IC50, nM: 129
- COMPOUND: "Cc1[nH]nc(-c2nc3cc4ccccc4cc3[nH]2)c1C(=O)NCC1CCCNC1 (centres unmarked)"
  IC50, nM: 125
- COMPOUND: "CCOC(=O)c1ccc2nc(-c3n[nH]c(C)c3C(=O)NC3CCNCC3)[nH]c2c1"
  IC50, nM: 433
- COMPOUND: "Cc1[nH]nc(-c2nc3ccc(C(C)(C)C)cc3[nH]2)c1C(=O)N[C@@H]1CN2CCC1CC2"
  IC50, nM: 52

---

The compounds below have reported IC50 for Akt1 (Homo sapiens, UniProt P31749).
PROPERTY_MEASURED: IC50

- COMPOUND: "Cc1[nH]nc(-c2nc3cc(Cl)c(Cl)cc3[nH]2)c1C(=O)NC1CCNCC1"
  TARGET_SYSTEM: "Akt1 (Homo sapiens, UniProt P31749)"
  READOUT_VALUE: "> 50 µM"
- COMPOUND: "Cc1[nH]nc(-c2nc3ccc(C(C)(C)C)cc3[nH]2)c1C(=O)NC1CCNCC1"
  TARGET_SYSTEM: "Akt1 (Homo sapiens, UniProt P31749)"
  READOUT_VALUE: "> 10 µM"
- COMPOUND: "Cc1[nH]nc(-c2nc3ccccc3[nH]2)c1C(=O)NC1CCCNC1 (centres unmarked)"
  TARGET_SYSTEM: "Akt1 (Homo sapiens, UniProt P31749)"
  READOUT_VALUE: "> 50 µM"
- COMPOUND: "Cc1[nH]nc(-c2nc3cc(F)c(NC(=O)C4CC4)cc3[nH]2)c1C(=O)NC1CCN(C)CC1"
  TARGET_SYSTEM: "Akt1 (Homo sapiens, UniProt P31749)"
  READOUT_VALUE: "44.1 µM"
- COMPOUND: "Cc1[nH]nc(-c2nc3ccccc3[nH]2)c1C(=O)NCC1CCNCC1"
  TARGET_SYSTEM: "Akt1 (Homo sapiens, UniProt P31749)"
  READOUT_VALUE: "11.1 µM"
- COMPOUND: "Cc1[nH]nc(-c2nc3cc(Cl)c(C(C)C)cc3[nH]2)c1C(=O)NC1CN2CCC1CC2 (centres unmarked)"
  TARGET_SYSTEM: "Akt1 (Homo sapiens, UniProt P31749)"
  READOUT_VALUE: "> 10 µM"
- COMPOUND: "CCOC(=O)c1ccc2nc(-c3n[nH]c(C)c3C(=O)NC3CCNCC3)[nH]c2c1"
  TARGET_SYSTEM: "Akt1 (Homo sapiens, UniProt P31749)"
  READOUT_VALUE: "> 50 µM"
- COMPOUND: "Cc1cc2nc(-c3n[nH]c(C)c3C(=O)NC3CCN(C)CC3)[nH]c2cc1C"
  TARGET_SYSTEM: "Akt1 (Homo sapiens, UniProt P31749)"
  READOUT_VALUE: "> 50 µM"
- COMPOUND: "Cc1[nH]nc(-c2nc3ccc(C(=O)NC4CCCC4)cc3[nH]2)c1C(=O)NC1CCNCC1"
  TARGET_SYSTEM: "Akt1 (Homo sapiens, UniProt P31749)"
  READOUT_VALUE: "28.6 µM"
- COMPOUND: "Cc1[nH]nc(-c2nc3cc(C(=O)NC(C)C)ccc3[nH]2)c1C(=O)NC1CCNCC1"
  TARGET_SYSTEM: "Akt1 (Homo sapiens, UniProt P31749)"
  READOUT_VALUE: "34.5 µM"
- COMPOUND: "O=C(NC1CCNCC1)c1c[nH]nc1-c1nc2ccccc2[nH]1"
  TARGET_SYSTEM: "Akt1 (Homo sapiens, UniProt P31749)"
  READOUT_VALUE: "> 50 µM"
- COMPOUND: "Cc1[nH]nc(-c2nc3ccc(C(C)(C)C)cc3[nH]2)c1C(=O)N[C@@H]1CN2CCC1CC2"
  TARGET_SYSTEM: "Akt1 (Homo sapiens, UniProt P31749)"
  READOUT_VALUE: "> 10 µM"
- COMPOUND: "Cc1[nH]nc(-c2nc3cc(-c4cccc5c4CCO5)ccc3[nH]2)c1C(=O)NC1CCNCC1"
  TARGET_SYSTEM: "Akt1 (Homo sapiens, UniProt P31749)"
  READOUT_VALUE: "25.6 µM"
- COMPOUND: "Cc1[nH]nc(-c2nc3c(F)c(F)ccc3[nH]2)c1C(=O)NC1CCNCC1"
  TARGET_SYSTEM: "Akt1 (Homo sapiens, UniProt P31749)"
  READOUT_VALUE: "> 50 µM"
- COMPOUND: "Cc1[nH]nc(-c2nc3cc4cn[nH]c4cc3[nH]2)c1C(=O)NCC1CCNCC1"
  TARGET_SYSTEM: "Akt1 (Homo sapiens, UniProt P31749)"
  READOUT_VALUE: "36.1 µM"
- COMPOUND: "Cc1[nH]nc(-c2nc3ccc(C4CC4)cc3[nH]2)c1C(=O)NC1CN2CCC1CC2 (centres unmarked)"
  TARGET_SYSTEM: "Akt1 (Homo sapiens, UniProt P31749)"
  READOUT_VALUE: "> 10 µM"
- COMPOUND: "Cc1[nH]nc(-c2nc3cc(F)c(F)cc3[nH]2)c1C(=O)NC1CCNCC1"
  TARGET_SYSTEM: "Akt1 (Homo sapiens, UniProt P31749)"
  READOUT_VALUE: "> 50 µM"

---

Target: CDK-2 enzyme, complexed with cyclin A (Homo sapiens)
Test: CDK2 kinase assay (33P peptide phosphorylation)
Details: 0.1 mM ATP, cyclin A complex
PROPERTY_MEASURED: IC50 (µM)

- COMPOUND: "Cc1cc2nc(-c3n[nH]c(C)c3C(=O)NC3CCCN(C)C3)[nH]c2cc1C (centres unmarked)"
  INEQUALITY_SIGN: "="
  READOUT_VALUE: 30.9
- COMPOUND: "Cc1[nH]nc(-c2nc3ccccc3[nH]2)c1C(=O)NC1CCN(C)CC1"
  INEQUALITY_SIGN: "="
  READOUT_VALUE: 2.21
- COMPOUND: "Cc1[nH]nc(-c2nc3cc(F)c(NC(=O)C4CC4)cc3[nH]2)c1C(=O)NC1CCN(C)CC1"
  INEQUALITY_SIGN: "="
  READOUT_VALUE: 20.6
- COMPOUND: "Cc1[nH]nc(-c2nc3ccc(NC(=O)CC(C)C)cc3[nH]2)c1C(=O)NC1CCN(C)CC1"
  INEQUALITY_SIGN: "="
  READOUT_VALUE: 21.3
- COMPOUND: "Cc1[nH]nc(-c2nc3c(F)c(F)ccc3[nH]2)c1C(=O)NC1CCNCC1"
  INEQUALITY_SIGN: "="
  READOUT_VALUE: 10.5
- COMPOUND: "Cc1[nH]nc(-c2nc3ccc(C4CC4)cc3[nH]2)c1C(=O)NC1CCNCC1"
  INEQUALITY_SIGN: "="
  READOUT_VALUE: 23.7
- COMPOUND: "Cc1[nH]nc(-c2nc3ccc(NC(=O)C(C)C)cc3[nH]2)c1C(=O)NC1CCN(C)CC1"
  INEQUALITY_SIGN: "="
  READOUT_VALUE: 21.3
- COMPOUND: "Cc1[nH]nc(-c2nc3cc(Cl)ccc3[nH]2)c1C(=O)NC1CCNCC1"
  INEQUALITY_SIGN: "="
  READOUT_VALUE: 10.6
- COMPOUND: "Cc1[nH]nc(-c2nc3ccc(C(C)(C)C)cc3[nH]2)c1C(=O)NC1CCNCC1"
  INEQUALITY_SIGN: "="
  READOUT_VALUE: 1.85
- COMPOUND: "Cc1[nH]nc(-c2nc3cc(Cl)c(Cl)cc3[nH]2)c1C(=O)NC1CCNCC1"
  INEQUALITY_SIGN: "="
  READOUT_VALUE: 4.77
- COMPOUND: "O=C(NC1CCNCC1)c1c[nH]nc1-c1nc2ccccc2[nH]1"
  INEQUALITY_SIGN: "="
  READOUT_VALUE: 6.36
- COMPOUND: "Cc1[nH]nc(-c2nc3ccc(C(=O)NCC(O)c4ccccc4)cc3[nH]2)c1C(=O)NC1CCNCC1 (centres unmarked)"
  INEQUALITY_SIGN: "="
  READOUT_VALUE: 13.8
- COMPOUND: "Cc1[nH]nc(-c2nc3cc4ccccc4cc3[nH]2)c1C(=O)NCC1CCCN1 (centres unmarked)"
  INEQUALITY_SIGN: "="
  READOUT_VALUE: 34.2
- COMPOUND: "Cc1[nH]nc(-c2nc3ccccc3[nH]2)c1C(=O)NCC1CCNCC1"
  INEQUALITY_SIGN: "="
  READOUT_VALUE: 47
- COMPOUND: "Cc1[nH]nc(-c2nc3ccc(C4CC4)cc3[nH]2)c1C(=O)NC1CN2CCC1CC2 (centres unmarked)"
  INEQUALITY_SIGN: ">"
  READOUT_VALUE: 50
- COMPOUND: "Cc1[nH]nc(-c2nc3cc(Cl)c(C(C)C)cc3[nH]2)c1C(=O)NC1CCNCC1"
  INEQUALITY_SIGN: "="
  READOUT_VALUE: 11.9
- COMPOUND: "Cc1[nH]nc(-c2nc3cc4nc[nH]c4cc3[nH]2)c1C(=O)NC1CCNCC1"
  INEQUALITY_SIGN: "="
  READOUT_VALUE: 38.9
